- System: Nanoluciferase (engineered Oplophorus gracilirostris luciferase)
- assay explanation: Primary Nanoluciferase (NLuc) qHTS assay for identification of artifact compounds. (AID 1845222);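 further: NLuc secreted into diluted conditioned medium of S16 cells; 0% = DMSO and -100% = no enzyme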
- assay setup: NLuc-conditioned medium, Nano-Glo luminescence, 5 min; series mostly up to 54.1 µM
Active and inactive are the calls of the source. The call rests on the fitted dose curve; in most records, active means well fitted inhibition curve with a large enough effect; inconclusive means small, poorly fitted or top-dose-only effect; inactive means flat fitted curve, though single readings scatter.
parameter measured: activity, negative = inhibition

>>> readout_value("C/C=C(\\C)C(=O)OC1CC2C(CC=C3CC(OC4CC(OC)C(OC5CC(OC)C(OC6CC(OC)C(OC7CC(OC)C(O)C(C)O7)C(C)O6)C(C)O5)C(C)O4)CCC32C)C2(O)CCC(C(C)=O)C12C (centres undefined)")
"1.71% [at 11.6 µM] (inactive)"
>>> readout_value("CC(=O)O[C@H]1CC[C@@]2(CI)C(=CC[C@@H]3[C@@H]2CC[C@]2(C)C(=O)CC[C@@H]32)C1")
"inactive"
>>> readout_value("C=CCN1CCC2(C)c3cc(O)ccc3C[C@H]1[C@H]2C")
"inactive"
>>> readout_value("CC(=O)OC[C@]12C[C@H](O)C(C)=C[C@H]1O[C@@H]1[C@H](O)[C@@H](OC(C)=O)[C@@]2(C)[C@]12CO2")
"inactive"
